Task for the reader: assign each of the following compounds its reported half-life at 2 μM.
Assay: Intestinal S9 Assay (dog GI S9)
Type: in vitro ADME
Settings: dog, 1.0 mg/mL S9 protein, TRIS pH 7.4, read-out: Dog GI S9 T½
One number for each entry, in h.

| COMPOUND | ENDPOINT VALUE |
| --- | --- |
| COC(=O)N[C@H](C(=O)N[C@@H](Cc1ccc(C#Cc2cnc(N3CC4CCC(C3)N4C3COC3)nc2)cc1)[C@H](CN(Cc1c(F)cc(-c2ccn(C(F)F)n2)cc1F)NC(=O)[C@@H](NC(=O)OC)C(C)(C)C(F)(F)F)OC(=O)CC(C)(C)c1c(CC(=O)NCCS(=O)(=O)O)cc(C)cc1OP(=O)(O)O)C(C)(C)C(F)(F)F [Example 24] | 2.24 |
| COC(=O)N[C@H](C(=O)N[C@@H](Cc1ccc(C#Cc2cnc(N3CC4CCC(C3)N4C3COC3)nc2)cc1)[C@H](CN(Cc1c(F)cc(-c2ccn(C(F)F)n2)cc1F)NC(=O)[C@@H](NC(=O)OC)C(C)(C)C(F)(F)F)OC(=O)CC(C)(C)c1c(CC(=O)Nc2cc(C#N)cc(C(=O)O)c2)cc(C)cc1OP(=O)(O)O)C(C)(C)C(F)(F)F [Example 63] | 6.37 |
| COC(=O)N[C@H](C(=O)N[C@@H](Cc1ccc(C#Cc2cnc(N3CC4CCC(C3)N4C3COC3)nc2)cc1)[C@H](CN(Cc1c(F)cc(-c2ccn(C(F)F)n2)cc1F)NC(=O)[C@@H](NC(=O)OC)C(C)(C)C(F)(F)F)OC(=O)CC(C)(C)c1c(CC(=O)N[C@@H](CCC(=O)O)C(=O)O)cc(C)cc1OP(=O)(O)O)C(C)(C)C(F)(F)F [Example 66] | 0.912 |
| COC(=O)N[C@H](C(=O)N[C@@H](Cc1ccc(C#Cc2cnc(N3CC4CCC(C3)N4C3COC3)nc2)cc1)[C@H](CN(Cc1c(F)cc(-c2ccn(C(F)F)n2)cc1F)NC(=O)[C@@H](NC(=O)OC)C(C)(C)C(F)(F)F)OC(=O)CC(C)(C)c1c(C)cc(C(=O)O)cc1OP(=O)(O)O)C(C)(C)C(F)(F)F [Example 3] | 0.685 |
| COC(=O)N[C@H](C(=O)N[C@@H](Cc1ccc(C#Cc2cnc(N3CC4CCC(C3)N4C3COC3)nc2)cc1)[C@H](CN(Cc1c(F)cc(-c2ccn(C(F)F)n2)cc1F)NC(=O)[C@@H](NC(=O)OC)C(C)(C)C(F)(F)F)OC(=O)CC(C)(C)c1c(CC(=O)N[C@@H](CCC(=O)O)C(=O)O)cccc1OP(=O)(O)O)C(C)(C)C(F)(F)F [Example 6] | 0.393 |

// next entry
The recorded half-life at 2 μM for entry COC(=O)N[C@H](C(=O)N[C@@H](Cc1ccc(C#Cc2cnc(N3CC4CCC(C3)N4C3COC3)nc2)cc1)[C@H](CN(Cc1c(F)cc(-c2ccn(C(F)F)n2)cc1F)NC(=O)[C@@H](NC(=O)OC)C(C)(C)C(F)(F)F)OC(=O)CC(C)(C)c1c(CC(=O)N2CC(C(=O)O)C2)cc(C)cc1OP(=O)(O)O)C(C)(C)C(F)(F)F [Example 110] equals 2.81
